Target: T1, recombinant human OX40-his (Sino Biological, Cat#:10481-H03H) (human, UniProt P43489 29-214)
T1 construct: bought protein; also called hOX40-his; not shown: His tag
T1 sequence: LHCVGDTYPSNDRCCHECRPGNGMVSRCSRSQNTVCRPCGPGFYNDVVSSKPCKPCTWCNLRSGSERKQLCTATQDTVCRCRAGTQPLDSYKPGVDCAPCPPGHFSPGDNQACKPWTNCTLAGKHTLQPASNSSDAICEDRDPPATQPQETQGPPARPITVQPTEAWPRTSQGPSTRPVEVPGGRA
Test: SPR Biacore 8K, OX40-His on chip, antibody injected
measured-attribute: kon (M⁻¹ s⁻¹)
Numeric only. Scale: M⁻¹ s⁻¹

68C8-VH2VL2 (antibody, human IgG1, kappa, V domains shown, humanized; also called 68C8-H2L2) VH: QVQLVQSGAEVKKPGASVKVSCKVSGDTFTSYWITWVRQRPGKGLEWMGDIHPGSGSTNNNEKFKNRVTMTVDTSTDTAYMELSSLRSEDTAVYYCATLRPYYFVYWGQGTLVTVSS VL: DIQMTQSPSSLSASVGDRVTITCRASQDISNYLNWYQQKPGKTPKLLIYYTSRLLSGVPSRFSGSGSGTDYTLTISSLQPEDFATYYCQQGNTLPLTFGQGTRLEIKR
207000
71H8-VH3VL2 (antibody, human IgG1, kappa, V domains shown, humanized; also called 71H8-H3L2) VH: QVQLVQSGAEVKKPGASVKVSCKVSGYTFTSYWITWVRQRPGQGLEWIGDIYPGSGSTNQNEKFKSRVTLTVDTSTDTAYMELSSLRSEDTAVYYCATLRPYYFVYWGQGTLVTVSS VL: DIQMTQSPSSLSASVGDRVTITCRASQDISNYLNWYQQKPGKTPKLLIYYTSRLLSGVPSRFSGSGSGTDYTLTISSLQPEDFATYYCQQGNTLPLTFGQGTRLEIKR
234000
68C8-VH3VL2 (antibody, human IgG1, kappa, V domains shown, humanized; also called 68C8-H3L2) VH: QVQLVQSGAEVKKPGASVKVSCKVSGDTFTSYWITWVRQRPGQGLEWIGDIHPGSGSTNNNEKFKNRVTLTVDTSTDTAYMELSSLRSEDTAVYYCATLRPYYFVYWGQGTLVTVSS VL: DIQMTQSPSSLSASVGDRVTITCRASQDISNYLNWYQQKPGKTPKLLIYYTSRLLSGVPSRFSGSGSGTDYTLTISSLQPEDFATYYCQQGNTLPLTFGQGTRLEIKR
165000
71H8-VH3VL3 (antibody, human IgG1, kappa, V domains shown, humanized; also called 71H8-H3L3) VH: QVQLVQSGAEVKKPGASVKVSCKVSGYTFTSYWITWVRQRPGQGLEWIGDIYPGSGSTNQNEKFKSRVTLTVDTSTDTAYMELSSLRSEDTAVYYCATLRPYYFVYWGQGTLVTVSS VL: DIQMTQSPSSLSASVGDRVTITCRASQDISNYLNWYQQKPGKTVKLLIYYTSRLLSGVPSRFSGSGSGTDYTLTISSLQPEDFATYFCQQGNTLPLTFGQGTRLEIKR
325000
chimeric antibody 68C8 (antibody, human IgG1, kappa, V domains shown, mouse variable regions with human IgG1/kappa constant regions) VH: QVQLQQSGAELVKPGASVKMSCKASGDTFTSYWITWVKQRPGQGLEWIGDIHPGSGSTNNNEKFKNKATLTVDTSSSTAYMQLSSLTSEDSAVYYCAKLRPYYFVYWGQGTTLTVSS VL: DIQMTQTTSSLSASLGDRVTISCRASQDISNYLNWYQQKPDGTVKLLIYYTSRLLSGVPSRFSGSGSGTDYSLTISNLEQEDIATYFCQQGNTLPLTFGAGTRLELKR
393000
68C8-VH0VL0 (antibody, human IgG1, kappa, V domains shown, humanized; also called 68C8-H0L0) VH: QVQLVQSGAEVKKPGASVKVSCKVSGDTFTSYWITWVRQAPGKGLEWMGDIHPGSGSTNNNEKFKNRVTMTEDTSTDTAYMELSSLRSEDTAVYYCATLRPYYFVYWGQGTLVTVSS VL: DIQMTQSPSSLSASVGDRVTITCRASQDISNYLNWYQQKPGKAPKLLIYYTSRLLSGVPSRFSGSGSGTDFTLTISSLQPEDFATYYCQQGNTLPLTFGQGTRLEIKR
410000
68C8-VH3VL3 (antibody, human IgG1, kappa, V domains shown, humanized; also called 68C8-H3L3) VH: QVQLVQSGAEVKKPGASVKVSCKVSGDTFTSYWITWVRQRPGQGLEWIGDIHPGSGSTNNNEKFKNRVTLTVDTSTDTAYMELSSLRSEDTAVYYCATLRPYYFVYWGQGTLVTVSS VL: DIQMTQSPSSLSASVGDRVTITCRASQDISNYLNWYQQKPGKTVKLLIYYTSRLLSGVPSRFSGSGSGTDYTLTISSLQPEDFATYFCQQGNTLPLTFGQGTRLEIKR
203000
chimeric antibody 71H8 (antibody, human IgG1, kappa, V domains shown, mouse variable regions with human IgG1/kappa constant regions) VH: QVQLQQSGAELVKPGASVKMSCKASGYTFTSYWITWVKQRPGQGLEWIGDIYPGSGSTNQNEKFKSKATLTVDTSSSTAYMQLSSLTSEDSAVYYCAKLRPYYFVYWGQGTTLTVSS VL: DIQMTQTPSSLSASLGDRVTISCRASQDISNYLNWYQQKPDGTVKLLIYYTSRLLSGVPSRFSGSGSGTDYSLTISNLEQEDIATYFCQQGNTLPLTFGAGTKLELKR
525000

Now examine the next entry.
Task: Which kon is listed for 71H8-VH0VL0 (antibody, human IgG1, kappa, V domains shown, humanized; also called 71H8-H0L0) VH: QVQLVQSGAEVKKPGASVKVSCKVSGDTFTSYWITWVRQAPGKGLEWMGDIYPGSGSTNQNEKFKSRVTMTEDTSTDTAYMELSSLRSEDTAVYYCATLRPYYFVYWGQGTLVTVSS VL: DIQMTQSPSSLSASVGDRVTITCRASQDISNYLNWYQQKPGKAPKLLIYYTSRLLSGVPSRFSGSGSGTDFTLTISSLQPEDFATYYCQQGNTLPLTFGQGTRLEIKR ?
Output: 297000
